Assay: Bioavailability in Wistar rat plasma at 2 mg/kg, iv administered as bolus dose measured after 5 to 360 mins by LC-MS/MS analysis
Format: ADME, organism-based
Details: time 5-360 min
QUANTITY_NAME: bioavailability (%)
One number for each entry, in %.

Input: Recorded bioavailability of C1=CCC(c2cccnc2)NC1 (stereo unspecified) , please.
Output: 68.6

----------
Assay: AUC in C57BL/6 plasma at 2 mg/kg, ip measured after 3 to 240 mins by LC-MS/MS analysis
Type: ADME, organism-based
Parameters: time 3-240 min, dose 2 mg/kg, route ip
Settings: C57BL/6, mouse
QUANTITY_NAME: AUC (ng·h/mL)
Give bare numbers, in ng·h/mL.

Input: Recorded AUC of C1=CCC(c2cccnc2)NC1 (stereo unspecified) , please.
Output: 430

----------
Assay: Drug concentration in carrageenan-induced paw edema in rat respiratory tract at 77.9 microg/L via inhalation measured for 30 mins
Type: ADME
Conditions: inhaled or intranasal, route inh, dose 77.9 µg/L, read-out: Drug uptake
QUANTITY_NAME: concentration at 0.5 h (ng/mL)
One number for each entry, in ng/mL.

Input: Recorded concentration at 0.5 h of C1=CCC(c2cccnc2)NC1 (stereo unspecified) , please.
Output: 0.87

----------
Test: AUC in Wistar rat plasma at 1 mg/kg, iv administered as bolus dose measured after 5 to 360 mins by LC-MS/MS analysis
Assay type: ADME, organism-based
Design: time upper 360 min, time lower 5 min, dose 1 mg/kg, route iv
QUANTITY_NAME: AUC
Answer by giving the amount and then stating its unit.

Input: Recorded AUC of C1=CCC(c2cccnc2)NC1 (stereo unspecified) , please.
Output: 1990 ng·h/mL

----------
Test: Volume of distribution at steady state in Wistar rat plasma at 1 mg/kg, iv administered as bolus dose measured after 5 to 360 mins by LC-MS/MS analysis
Type: ADME, organism-based
Settings: time 5-360 min, read-out: Vdss
QUANTITY_NAME: Vd

Input: Recorded Vd of C1=CCC(c2cccnc2)NC1 (stereo unspecified) , please.
Output: 1.23 L/kg

----------
Assay: Bioavailability in rat at 0.40 mg/kg via inhalation
Assay type: ADME, organism-based
Conditions: in vivo, inhaled or intranasal, route inh, dose 0.4 mg/kg
QUANTITY_NAME: bioavailability (%)
Give bare numbers, in %.

Input: Recorded bioavailability of C1=CCC(c2cccnc2)NC1 (stereo unspecified) , please.
Output: 80.1

----------
Assay: AUC in rat at 0.40 mg/kg via inhalation
Assay type: ADME, organism-based
Parameters: dose 0.4 mg/kg, route inh
Settings: in vivo, inhaled or intranasal, 0.4 mg/kg
QUANTITY_NAME: AUC (ng·h/mL)
Give bare numbers, in ng·h/mL.

Input: Recorded AUC of C1=CCC(c2cccnc2)NC1 (stereo unspecified) , please.
Output: 637

----------
Test: Half life in rat at 0.40 mg/kg via inhalation
Type: ADME, organism-based
Settings: in vivo, inhaled or intranasal, route inh, dose 0.4 mg/kg
QUANTITY_NAME: half-life (h)
One number for each entry, in h.

Input: Recorded half-life of C1=CCC(c2cccnc2)NC1 (stereo unspecified) , please.
Output: 3.84

----------
Assay: Ratio of Cmax in C57BL/6 mouse brain to plasma at 2 mg/kg, ip measured after 3 to 240 mins by LC-MS/MS analysis
Format: ADME, organism-based
Settings: brain and plasma, time 3-240 min, read-out: BPR
QUANTITY_NAME: Kp
Answers are plain numbers.

Input: Recorded Kp of C1=CCC(c2cccnc2)NC1 (stereo unspecified) , please.
Output: 2.5

----------
Assay: Clearance in Wistar rat plasma at 5 mg/kg, ip administered as bolus dose measured after 5 to 360 mins by LC-MS/MS analysis
Format: ADME, organism-based
Conditions: time 5-360 min
QUANTITY_NAME: CL/F (mL/min/kg)
One number for each entry, in mL/min/kg.

Input: Recorded CL/F of C1=CCC(c2cccnc2)NC1 (stereo unspecified) , please.
Output: 8.11

----------
Assay: Bioavailability in rat at 0.06 mg/kg via inhalation
Assay type: ADME, organism-based
Settings: in vivo, inhaled or intranasal, route inh
QUANTITY_NAME: bioavailability (%)
Give bare numbers, in %.

Input: Recorded bioavailability of C1=CCC(c2cccnc2)NC1 (stereo unspecified) , please.
Output: 76.5

----------
Test: AUC in Wistar rat plasma at 5 mg/kg, ip administered as bolus dose measured after 5 to 360 mins by LC-MS/MS analysis
Format: ADME, organism-based
Design: dose 5 mg/kg, time upper 360 min, time lower 5 min, route ip
QUANTITY_NAME: AUC (ng·h/mL)
One number for each entry, in ng·h/mL.

Input: Recorded AUC of C1=CCC(c2cccnc2)NC1 (stereo unspecified) , please.
Output: 6820

----------
Assay: Tmax in C57BL/6 plasma at 2 mg/kg, ip measured after 3 to 240 mins by LC-MS/MS analysis
Assay type: ADME, organism-based
Conditions: C57BL/6, mouse, time 3-240 min
QUANTITY_NAME: Tmax (min)
One number for each entry, in min.

Input: Recorded Tmax of C1=CCC(c2cccnc2)NC1 (stereo unspecified) , please.
Output: 1.8

----------
Assay: AUC in Wistar rat plasma at 2 mg/kg, iv administered as bolus dose measured after 5 to 360 mins by LC-MS/MS analysis
Format: ADME, organism-based
Design: time lower 5 min, dose 2 mg/kg, time upper 360 min, route iv
QUANTITY_NAME: AUC (ng·h/mL)
Answers are plain numbers, in ng·h/mL.

Input: Recorded AUC of C1=CCC(c2cccnc2)NC1 (stereo unspecified) , please.
Output: 2730

----------
Test: Cmax in C57BL/6 brain at 2 mg/kg, ip measured after 3 to 240 mins by LC-MS/MS analysis
Assay type: ADME, organism-based
Set-up: time upper 240 min, time lower 3 min, dose 2 mg/kg, route ip
Details: C57BL/6, mouse
QUANTITY_NAME: Cmax (ng/mL)
Give bare numbers, in ng/mL.

Input: Recorded Cmax of C1=CCC(c2cccnc2)NC1 (stereo unspecified) , please.
Output: 3380

----------
Test: AUC in rat at 0.06 mg/kg via inhalation
Type: ADME, organism-based
Set-up: dose 0.06 mg/kg, route inh
Conditions: in vivo, inhaled or intranasal
QUANTITY_NAME: AUC (ng·h/mL)
One number for each entry, in ng·h/mL.

Input: Recorded AUC of C1=CCC(c2cccnc2)NC1 (stereo unspecified) , please.
Output: 91.2

----------
Test: Half life in Wistar rat plasma at 2 mg/kg, iv administered as bolus dose measured after 5 to 360 mins by LC-MS/MS analysis
Format: ADME, organism-based
Details: time 5-360 min
QUANTITY_NAME: half-life (h)
Numbers only, in h.

Input: Recorded half-life of C1=CCC(c2cccnc2)NC1 (stereo unspecified) , please.
Output: 1.39

----------
Experiment: Half life in rat at 2.73 mg/kg via inhalation
Format: ADME, organism-based
Conditions: in vivo, inhaled or intranasal, route inh
QUANTITY_NAME: half-life

Input: Recorded half-life of C1=CCC(c2cccnc2)NC1 (stereo unspecified) , please.
Output: 3.64 h

----------
Assay: Cmax in C57BL/6 plasma at 2 mg/kg, ip measured after 3 to 240 mins by LC-MS/MS analysis
Format: ADME, organism-based
Set-up: time 3-240 min, dose 2 mg/kg, route ip
Details: C57BL/6, mouse
QUANTITY_NAME: Cmax (ng/mL)
One number for each entry, in ng/mL.

Input: Recorded Cmax of C1=CCC(c2cccnc2)NC1 (stereo unspecified) , please.
Output: 1370

----------
Assay: Cmax in rat at 2.73 mg/kg via inhalation
Type: ADME, organism-based
Parameters: dose 2.73 mg/kg, route inh
Conditions: in vivo, inhaled or intranasal
QUANTITY_NAME: Cmax (ng/mL)
Give bare numbers, in ng/mL.

Input: Recorded Cmax of C1=CCC(c2cccnc2)NC1 (stereo unspecified) , please.
Output: 780

----------
Assay: Cmax in Wistar rat plasma at 5 mg/kg, ip administered as bolus dose measured after 5 to 360 mins by LC-MS/MS analysis
Type: ADME, organism-based
Set-up: dose 5 mg/kg, time upper 360 min, time lower 5 min, route ip
QUANTITY_NAME: Cmax
Answer by giving the amount and then stating its unit.

Input: Recorded Cmax of C1=CCC(c2cccnc2)NC1 (stereo unspecified) , please.
Output: 2730 ng/mL

----------
Test: AUC in C57BL/6 brain at 2 mg/kg, ip measured after 3 to 240 mins by LC-MS/MS analysis
Assay type: ADME, organism-based
Parameters: time 3-240 min, dose 2 mg/kg, route ip
Settings: C57BL/6, mouse
QUANTITY_NAME: AUC

Input: Recorded AUC of C1=CCC(c2cccnc2)NC1 (stereo unspecified) , please.
Output: 1490 ng·h/mL
